Test System: ATP-dependent translocase ABCB1 (Homo sapiens, UniProt P08183)
Sequence (P08183 whole entry): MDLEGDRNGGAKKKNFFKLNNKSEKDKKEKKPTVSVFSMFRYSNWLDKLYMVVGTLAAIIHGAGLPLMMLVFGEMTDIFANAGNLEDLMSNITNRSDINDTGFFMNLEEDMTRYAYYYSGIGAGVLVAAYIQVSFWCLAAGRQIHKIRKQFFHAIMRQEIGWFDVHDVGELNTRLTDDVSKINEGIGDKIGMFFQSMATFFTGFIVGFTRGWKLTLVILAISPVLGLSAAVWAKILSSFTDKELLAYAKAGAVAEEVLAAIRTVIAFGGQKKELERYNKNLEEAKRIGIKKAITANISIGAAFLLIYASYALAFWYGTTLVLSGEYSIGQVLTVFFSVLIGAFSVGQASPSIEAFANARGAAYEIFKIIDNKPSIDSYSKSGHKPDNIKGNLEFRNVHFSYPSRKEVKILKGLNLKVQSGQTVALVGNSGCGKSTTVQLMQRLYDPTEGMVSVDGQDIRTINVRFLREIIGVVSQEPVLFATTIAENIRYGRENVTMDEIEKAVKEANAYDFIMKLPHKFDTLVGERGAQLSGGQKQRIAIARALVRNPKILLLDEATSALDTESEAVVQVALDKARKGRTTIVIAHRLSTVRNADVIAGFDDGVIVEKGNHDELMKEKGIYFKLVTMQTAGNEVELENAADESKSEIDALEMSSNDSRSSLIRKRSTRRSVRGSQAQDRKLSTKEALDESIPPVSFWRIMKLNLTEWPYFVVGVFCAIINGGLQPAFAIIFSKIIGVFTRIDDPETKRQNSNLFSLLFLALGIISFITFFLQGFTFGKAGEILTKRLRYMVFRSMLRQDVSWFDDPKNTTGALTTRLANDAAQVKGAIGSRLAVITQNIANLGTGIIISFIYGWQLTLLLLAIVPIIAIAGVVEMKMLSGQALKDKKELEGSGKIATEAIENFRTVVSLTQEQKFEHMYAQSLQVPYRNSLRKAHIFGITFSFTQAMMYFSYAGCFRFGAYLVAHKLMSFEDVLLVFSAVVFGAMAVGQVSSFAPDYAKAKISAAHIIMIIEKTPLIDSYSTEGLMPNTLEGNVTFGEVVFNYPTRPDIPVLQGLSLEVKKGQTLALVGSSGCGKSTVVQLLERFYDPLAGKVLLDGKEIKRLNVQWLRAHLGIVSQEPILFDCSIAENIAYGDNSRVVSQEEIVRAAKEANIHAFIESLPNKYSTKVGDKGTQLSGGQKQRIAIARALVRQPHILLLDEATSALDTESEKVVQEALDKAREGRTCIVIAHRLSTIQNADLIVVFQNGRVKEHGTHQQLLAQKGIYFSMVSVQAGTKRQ
Test Name: Inhibition of MDR1 transfected in MDCK2 cells assessed as increase in calcein AM uptake incubated for 30 mins prior to calcein AM influx measured after 20 mins by fluorimetric analysis
Assay type: cell-based, MDCK-II
Criterion: IC50 strictly under 10 µM. Met: criterion met. Not met: criterion not met.

Molecular String: CCN(CC)C(=S)c1ccc(-c2c3ccc(=[N+](C)C)cc-3sc3cc(N(C)C)ccc23)s1.F[P-](F)(F)(F)(F)F
Test System: ATP-dependent translocase ABCB1 (Homo sapiens, UniProt P08183)
Assigned Class: criterion not met
--
Molecular String: CN1CCC(C)(C)c2cc3c(-c4ccc(C(=O)N5CCCCC5)s4)c4ccc(=[N+](C)C)cc-4sc3cc21.F[P-](F)(F)(F)(F)F
Test System: ATP-dependent translocase ABCB1 (Homo sapiens, UniProt P08183)
Assigned Class: criterion not met
--
Molecular String: CCN(CC)C(=S)c1ccc(-c2c3ccc(=[N+](C)C)cc-3sc3c4c5c(cc23)CCCN5CCC4)s1.F[P-](F)(F)(F)(F)F
Test System: ATP-dependent translocase ABCB1 (Homo sapiens, UniProt P08183)
Assigned Class: criterion met
--
Molecular String: CCN(CC)C(=O)c1ccc(-c2c3ccc(=[N+](C)C)cc-3sc3cc4c(cc23)C(C)(C)CCN4C)s1.F[P-](F)(F)(F)(F)F
Test System: ATP-dependent translocase ABCB1 (Homo sapiens, UniProt P08183)
Assigned Class: criterion met
--
Molecular String: CCN(CC)C(=S)c1ccc(-c2c3ccc(=[N+](C)C)cc-3sc3cc4c(cc23)C(C)(C)CCN4C)s1.F[P-](F)(F)(F)(F)F
Test System: ATP-dependent translocase ABCB1 (Homo sapiens, UniProt P08183)
Assigned Class: criterion met
--
Molecular String: CN1CCC(C)(C)c2cc3c(-c4ccc(C(=S)N5CCCCC5)s4)c4ccc(=[N+](C)C)cc-4sc3cc21.F[P-](F)(F)(F)(F)F
Test System: ATP-dependent translocase ABCB1 (Homo sapiens, UniProt P08183)
Assigned Class: criterion met
--
Molecular String: C[N+](C)=c1ccc2c(-c3ccc(C(=O)N4CCCCC4)s3)c3cc4c5c(c3sc-2c1)CCCN5CCC4.F[P-](F)(F)(F)(F)F
Test System: ATP-dependent translocase ABCB1 (Homo sapiens, UniProt P08183)
Assigned Class: criterion not met
